- Assayed target: human APJ receptor (Homo sapiens, UniProt P35414)
- Construct: expressed in transfected cells; host or cells: HEK293
- Protocol details: Intracellular cAMP accumulation assay (APJ hcAMP, HTRF)
- Type: cell-based
- Test context: HEK293 cells stably expressing human APJ receptor; inhibition of forskolin-mediated cAMP production; read-out: APJ cAMP Potency range
We begin with a simple list: items and their reported EC50.

Examples from the recorded data:
Molecule: CCOCc1nc(=O)c(Cc2ccc(-c3ccc(F)nc3)cc2)c(O)n1[C@@H](COC)c1cc(F)cc(F)c1
EC50: 10 to 100 nM
--
Molecule: CCCCc1nc(=O)c(Cc2ccc(C3CC3)cc2)c(O)n1[C@@H](CC)c1cccc(C#N)c1 [Example 101]
EC50: 0.01 to 10 nM
--
Molecule: COc1cccc(OC)c1-n1c(CCC(C)C)nc(O)c(Cc2nnc(-c3ccc(C)cc3)o2)c1=O
EC50: 10 to 100 nM

Request: Fill in reported EC50 for this entry: CCc1cccc(CC)c1-n1c(-c2ccn(C(C)C)n2)nc(=O)c(Cc2ccc(-c3ccc(F)cc3C(N)=O)c(F)c2)c1O
Result: 0.01 to 10 nM

----------
Reported EC50 values are given for each entry in this list.
- Assayed target: human APJ receptor (Homo sapiens, UniProt P35414)
- Construct: expressed in transfected cells; host or cells: HEK293
- Protocol details: Intracellular cAMP accumulation assay (APJ hcAMP, HTRF)
- Assay type: cell-based
- Test context: HEK293 cells stably expressing human APJ receptor; inhibition of forskolin-mediated cAMP production; read-out: APJ cAMP Potency range

Molecule smiles: CCc1cccc(CC)c1-n1c(-c2ccn(CC(C)C)n2)nc(=O)c(Cc2ccc(-c3cccn(C)c3=O)c(F)c2)c1O
Assayed target: human APJ receptor (Homo sapiens, UniProt P35414)
Meas value: 100 to 300 nM
--
Molecule smiles: CCc1cccc(CC)c1-n1c(-c2ccn(C3CC3)n2)nc(=O)c(Cc2ccc(-c3cccn(C)c3=O)c(F)c2)c1O
Assayed target: human APJ receptor (Homo sapiens, UniProt P35414)
Meas value: 0.01 to 10 nM
--
Molecule smiles: CCc1cccc(CC)c1-n1c(-c2csc(C)n2)nc(=O)c(Cc2ccc(-c3ccncc3C)c(F)c2)c1O
Assayed target: human APJ receptor (Homo sapiens, UniProt P35414)
Meas value: 0.01 to 10 nM
--
Molecule smiles: CCCCc1nc(O)c(Cc2ccc(-n3ccccc3=O)cc2)c(=O)n1-c1c(OC)cccc1OC
Assayed target: human APJ receptor (Homo sapiens, UniProt P35414)
Meas value: 0.01 to 10 nM
--
Molecule smiles: CCCCc1nc(O)c(Cc2ccc(-n3ccc(Cl)cc3=O)cc2)c(=O)n1-c1c(OC)cccc1OC
Assayed target: human APJ receptor (Homo sapiens, UniProt P35414)
Meas value: 0.01 to 10 nM

Request: Note EC50 for the compound shown: CCCCc1nc(O)c(Cc2nc(-c3ccc(C(F)(F)F)cc3)no2)c(=O)n1-c1c(OC)cccc1OC
Result: 0.01 to 10 nM

Request: // fetch EC50 given entry Cc1ncccc1-c1ccc(Cc2c(O)n([C@H](c3cc(F)cc(C#N)c3)C(C)C)c(COC(C)C)nc2=O)cc1
Result: 10 to 100 nM

Request: Dear colleague, please send me the reported EC50 for CCCCc1nc(O)c(Cc2ccc(-c3cccnc3OC)cc2)c(=O)n1-c1c(OC)cccc1OC when you can.
Result: 0.01 to 10 nM

Request: Look up and report measured EC50 for this entry: CCc1cccc(CC)c1-n1c(-c2nc(C)cs2)nc(=O)c(Cc2ccc(-c3ccnc(F)c3C)c(F)c2)c1O
Result: 0.01 to 10 nM

Request: Output EC50 of CCCCc1nc(O)c(Cc2ccc(N3CCOCC3)cc2)c(=O)n1-c1c(OC)cccc1OC
Result: 0.01 to 10 nM

Request: // fetch EC50 given entry CCCCc1nc(O)c(Cc2cnn(Cc3ccccc3)c2)c(=O)n1-c1c(OC)cccc1OC
Result: 0.01 to 10 nM

Request: Please report EC50 for the following compound: CC[C@@H](c1cc(F)cc(F)c1)n1c(CCC2CC2)nc(=O)c(Cc2ccc(-c3cccnc3C)cc2)c1O
Result: 0.01 to 10 nM

Request: Please list EC50 recorded for the compound Cc1ncccc1-c1ccc(Cc2c(O)n([C@H](c3cc(F)cc(F)c3)C(C)C)c(COC(C)C)nc2=O)cc1
Result: 0.01 to 10 nM

Request: Write down EC50 measured for item CCc1cccc(CC)c1-n1c(-c2ccn(C)n2)nc(=O)c(Cc2ccc(-c3cccn(C)c3=O)cc2F)c1O
Result: 0.01 to 10 nM

----------
EC50 values for the compounds below.
- Assayed target: human APJ receptor (Homo sapiens, UniProt P35414)
- Construct: expressed in transfected cells; host or cells: HEK293
- Protocol details: Intracellular cAMP accumulation assay (APJ hcAMP, HTRF)
- Assay type: cell-based
- Test context: HEK293 cells stably expressing human APJ receptor; inhibition of forskolin-mediated cAMP production; read-out: APJ cAMP Potency range

Compound: CCCCc1nc(O)c(Cc2ccc(C(=O)NCC)cc2)c(=O)n1-c1c(OC)cccc1OC [Example 15]
Assayed target: human APJ receptor (Homo sapiens, UniProt P35414)
Meas value: 10 to 100 nM

Compound: CC[C@@H](c1cc(F)cc(F)c1)n1c(COC(C)C)nc(=O)c(Cc2ccc(-c3ccnc(F)c3C)cc2)c1O [Example 108]
Assayed target: human APJ receptor (Homo sapiens, UniProt P35414)
Meas value: 0.01 to 10 nM

Compound: CC(C)[C@@H](c1cc(F)cc(F)c1)n1c(CCC2CC2)nc(=O)c(Cc2ccc(-c3ccc(F)cc3C(N)=O)cc2)c1O [Example 117]
Assayed target: human APJ receptor (Homo sapiens, UniProt P35414)
Meas value: 0.01 to 10 nM

Compound: COc1cccc(OC)c1-n1c(CCC(C)C)nc(O)c(Cc2ccc(-n3cc(C)ccc3=O)cc2)c1=O [Example 54]
Assayed target: human APJ receptor (Homo sapiens, UniProt P35414)
Meas value: 0.01 to 10 nM

Compound: CCOCc1nc(=O)c(Cc2ccc(-c3cccnc3C)cc2)c(O)n1[C@@H](COC)c1cc(F)cc(F)c1 [Example 123]
Assayed target: human APJ receptor (Homo sapiens, UniProt P35414)
Meas value: 0.01 to 10 nM

Compound: CCOCc1nc(O)c(Cc2ccn(-c3ccc(Cl)cc3)n2)c(=O)n1-c1c(OC)cccc1OC [Example 31]
Assayed target: human APJ receptor (Homo sapiens, UniProt P35414)
Meas value: 10 to 100 nM

Compound: CCc1cccc(CC)c1-n1c(-c2ccn(C)n2)nc(=O)c(Cc2ccc(-c3ccnc(F)c3C)c(F)c2)c1O [Example 71]
Assayed target: human APJ receptor (Homo sapiens, UniProt P35414)
Meas value: 0.01 to 10 nM

Compound: COc1cccc(OC)c1-n1c(C2CCCC2)nc(O)c(Cc2ccc(-n3ccccc3=O)cc2)c1=O [Example 38]
Assayed target: human APJ receptor (Homo sapiens, UniProt P35414)
Meas value: 0.01 to 10 nM

Compound: COc1cccc(OC)c1-n1c(COC(C)C)nc(O)c(Cc2ccc(-n3cc(C)ccc3=O)cc2)c1=O [Example 58]
Assayed target: human APJ receptor (Homo sapiens, UniProt P35414)
Meas value: 0.01 to 10 nM

Compound: CCCCc1nc(O)c(Cc2ccn(-c3ccc(Cl)cc3)n2)c(=O)n1-c1c(OC)cccc1OC [Example 24]
Assayed target: human APJ receptor (Homo sapiens, UniProt P35414)
Meas value: 0.01 to 10 nM

Request: Respond only with EC50 recorded for COc1cccc(OC)c1-n1c(COC(C)C)nc(O)c(Cc2ccc(-n3cc(F)ccc3=O)cc2)c1=O [Example 59]
Result: 0.01 to 10 nM

----------
The entries below come with measured pEC50 values attached.
- Assayed target: human APJ receptor (Homo sapiens, UniProt P35414)
- Construct: expressed in transfected cells; host or cells: HEK293
- Sequence (P35414 1-380): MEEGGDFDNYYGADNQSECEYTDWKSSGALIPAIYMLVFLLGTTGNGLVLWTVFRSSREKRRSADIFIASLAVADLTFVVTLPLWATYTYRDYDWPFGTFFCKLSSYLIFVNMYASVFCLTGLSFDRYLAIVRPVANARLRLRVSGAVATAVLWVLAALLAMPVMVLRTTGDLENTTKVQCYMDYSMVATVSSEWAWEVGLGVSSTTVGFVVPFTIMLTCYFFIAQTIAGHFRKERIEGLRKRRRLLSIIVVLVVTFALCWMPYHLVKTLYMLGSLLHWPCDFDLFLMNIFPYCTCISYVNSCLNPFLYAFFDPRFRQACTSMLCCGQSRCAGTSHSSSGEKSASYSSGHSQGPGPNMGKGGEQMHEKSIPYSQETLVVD
- Protocol details: Intracellular cAMP accumulation assay (APJ hcAMP, HTRF)
- Type: cell-based
- Test context: HEK293 cells stably expressing human APJ receptor; inhibition of forskolin-mediated cAMP production; read-out: APJ cAMP Potency range
- Experimental: Intracellular cAMP Accumulation Assay HEK293 cells stably expressing human APJ receptor were used to assess the activity of compounds. Cultured cells were detached and resuspended in the cAMP Homogeneous Time-Resolved Fluorescence (HTRF) assay buffer (Cisbio cat; #62AM4PEJ). […] The fluorescence emission ratio was measured using fluorometer. […] The biological activity of the exemplified compounds of this invention determined by the assay described above is shown at the end of each example.
pEC50: −log10 of the molar value.

Sample answers from the record:
Molecule: CCOCc1nc(=O)c(Cc2ccc(-c3ccncc3C)cc2)c(O)n1[C@@H](COC)c1cc(F)cc(F)c1 [Example 122]
pEC50: 8.00 to 11.00
//
Molecule: COc1cccc(OC)c1-n1c(COC(C)C)nc(O)c(Cc2ccc(-n3cc(Cl)ccc3=O)cc2)c1=O [Example 60]
pEC50: 8.00 to 11.00
//
Molecule: CC[C@@H](c1cc(F)cc(F)c1)n1c(CCC2CC2)nc(=O)c(Cc2ccc(-c3ccncc3C)cc2)c1O [Example 110]
pEC50: 8.00 to 11.00

Request: Return value of pEC50 for input COc1cccc(OC)c1-n1c(CCC(C)C)nc(O)c(Cc2ccc(-n3ccccc3=O)cc2)c1=O [Example 34] , no commentary.
Result: 8.00 to 11.00

Request: Specify pEC50 for CCc1cccc(CC)c1-n1c(-c2ccn(C(C)C)n2)nc(=O)c(Cc2ccc(-c3ccnc(F)c3C)c(F)c2)c1O [Example 85] and stop.
Result: 8.00 to 11.00

Request: Respond only with pEC50 recorded for COc1cccc(OC)c1-n1c(CCC(C)C)nc(O)c(Cc2ccc(-n3cc(F)ccc3=O)cc2)c1=O [Example 52]
Result: 8.00 to 11.00
